Give binding signal for every item shown.
target: dAsCas12a WT (Acidaminococcus sp., UniProt U2UMQ6 1-1307, D908A;E993A;D1235A); assay: Spec-seq (native PAGE EMSA with sequencing of bound and unbound); 25 mM Tris-HCl pH 7.4, 150 mM KCl, 5 mM MgCl2, 10% glycerol, 1 mM DTT, 40 ng/uL salmon sperm DNA; 400 nM Cas12a, 480 nM crRNA, 50 nM library, 37 C 1 h; native P; high values mean tight binding
Numeric answer only, unit lnKA assumed.

Item GTTG (dsDNA) DNA 1: GCTATCTAGTGCTCAGTACGCACTGGTTGAGGAAACTTCTGGCAGGACCAGGTCATGAGATCGGAAGAGCACACGTCTGAACTCCAGTCA DNA 2: TGACTGGAGTTCAGACGTGTGCTCTTCCGATCTCATGACCTGGTCCTGCCAGAAGTTTCCTCAACCAGTGCGTACTGAGCACTAGATAGC RNA: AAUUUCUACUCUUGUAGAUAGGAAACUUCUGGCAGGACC : provide binding signal
-7.73

Look up and state reported binding signal for TTTG (dsDNA) DNA 1: GCTATCTAGTGCTCAGTACGCACTGTTTGAGGAAACTTCTGGCAGGACCAGGTCATGAGATCGGAAGAGCACACGTCTGAACTCCAGTCA DNA 2: TGACTGGAGTTCAGACGTGTGCTCTTCCGATCTCATGACCTGGTCCTGCCAGAAGTTTCCTCAAACAGTGCGTACTGAGCACTAGATAGC RNA: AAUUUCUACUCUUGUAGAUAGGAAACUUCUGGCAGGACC
-1.4

Determine its reported binding signal: TCTG (dsDNA) DNA 1: GCTATCTAGTGCTCAGTACGCACTGTCTGAGGAAACTTCTGGCAGGACCAGGTCATGAGATCGGAAGAGCACACGTCTGAACTCCAGTCA DNA 2: TGACTGGAGTTCAGACGTGTGCTCTTCCGATCTCATGACCTGGTCCTGCCAGAAGTTTCCTCAGACAGTGCGTACTGAGCACTAGATAGC RNA: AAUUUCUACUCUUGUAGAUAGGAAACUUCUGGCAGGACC
-6.99

Please list binding signal recorded for the binder CTTG (dsDNA) DNA 1: GCTATCTAGTGCTCAGTACGCACTGCTTGAGGAAACTTCTGGCAGGACCAGGTCATGAGATCGGAAGAGCACACGTCTGAACTCCAGTCA DNA 2: TGACTGGAGTTCAGACGTGTGCTCTTCCGATCTCATGACCTGGTCCTGCCAGAAGTTTCCTCAAGCAGTGCGTACTGAGCACTAGATAGC RNA: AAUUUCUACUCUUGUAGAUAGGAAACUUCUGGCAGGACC
-7.38

Answer with reported binding signal of CTTC (dsDNA) DNA 1: GCTATCTAGTGCTCAGTACGCACTGCTTCAGGAAACTTCTGGCAGGACCAGGTCATGAGATCGGAAGAGCACACGTCTGAACTCCAGTCA DNA 2: TGACTGGAGTTCAGACGTGTGCTCTTCCGATCTCATGACCTGGTCCTGCCAGAAGTTTCCTGAAGCAGTGCGTACTGAGCACTAGATAGC RNA: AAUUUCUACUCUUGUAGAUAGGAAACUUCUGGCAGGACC
-6.68
